Origin of values: patent US20230096766A1

Papp overview
Test: in vitro
Settings: human, Caco-2, Caco-2 (cm/sec)
Where a SMILES comes first, the peptide text is derived from it. Bridges are numbered along the chain shown (N, C = ends). [ ]: non-standard residue; d: D form. The star is where a group is joined. Phe(3-OMe,4-CONHMe) = CNC(=O)c1ccc(C[C@H](N)C(=O)O)cc1OC; NMePhe(3-Cl) = CN[C@@H](Cc1cccc(Cl)c1)C(=O)O; NMeF = CN[C@@H](Cc1ccccc1)C(=O)O; NMeI = CC[C@H](C)[C@H](NC)C(=O)O; NMeL = CN[C@@H](CC(C)C)C(=O)O; NMeV = CN[C@H](C(=O)O)C(C)C; Piperidide = C1CCN(*)CC1; NBuGly = CCCCNCC(=O)O; X3 = C[C@H](O)C*; Sar = CNCC(=O)O; tBu = CC(C)(C)*
Field: numeric (×10⁻⁶ cm/s). Do not append units.

Quick one: Papp for CCCCN1CC(=O)N(C)[C@@H](CC(C)C)C(=O)N[C@@H](COC(C)(C)C)C(=O)N(C)[C@@H](Cc2ccccc2)C(=O)N(C)[C@@H](CC(C)C)C(=O)N[C@H](C(=O)N2CCCCC2)CC(=O)N[C@H](C(C)C)C(=O)N(C)[C@@H](C(C)C)C(=O)N[C@@H](Cc2ccc(C(=O)NC)c(OC)c2)C(=O)N(C)[C@@H](CC(C)C)C(=O)N[C@@H]([C@@H](C)O)C1=O [AP27] ([dV][NMeV][Phe(3-OMe,4-CONHMe)][NMeL]T[NBuGly][NMeL]S(tBu)[NMeF][NMeL]D-Piperidide; lactam N-11) ?
0.91

What do you get for CC[C@H](C)[C@H]1C(=O)N[C@@H]([C@@H](C)O)C(=O)N(C)CC(=O)N(C)[C@@H](CC(C)C)C(=O)N[C@H](C(=O)N2CCCCC2)CC(=O)N(C)[C@@H](C(C)C)C(=O)N[C@@H](COC[C@H](C)O)C(=O)N(C)[C@@H](CC(C)C)C(=O)N(C)[C@@H](Cc2cccc(Cl)c2)C(=O)N[C@@H](CC(C)C)C(=O)N(C)[C@@H](Cc2ccccc2)C(=O)N1C [AP69] ([NMeV]S(X3)[NMeL][NMePhe(3-Cl)]L[NMeF][NMeI]T[Sar][NMeL]D-Piperidide; lactam N-11) ?
0.7

* * *

Caco-2 overview
System: Caco-2
*1 amine or outer side, *2 acyl side, *3 side chain or, on linkers, in order; H or OH if unused. Where a SMILES comes first, the peptide text is derived from it. Bridges are numbered along the chain shown (N, C = ends). [ ]: non-standard residue; d: D form. The star is where a group is joined. ξ: configuration not given here. NMePhe(3-Cl) = CN[C@@H](Cc1cccc(Cl)c1)C(=O)O; hhPhe = N[C@@H](CCCc1ccccc1)C(=O)O; NMeF = CN[C@@H](Cc1ccccc1)C(=O)O; NMeGABA = CN(CCCC(=O)[*:2])[*:1]; NMeI = CC[C@H](C)[C@H](NC)C(=O)O; NMeD = CN[C@@H](CC(=O)O)C(=O)O; NMeL = CN[C@@H](CC(C)C)C(=O)O; NMeV = CN[C@H](C(=O)O)C(C)C; NMeA = CN[C@@H](C)C(=O)O; Piperidide = C1CCN(*)CC1; NPrGly = CCCNCC(=O)O; Bn = c1ccc(C*)cc1; ξS = NC(CO)C(=O)O; Sar = CNCC(=O)O; tBu = CC(C)(C)*
Field: numeric (cm/s). Do not append units.

Quick one: Caco-2 for CC[C@H](C)[C@@H]1NC(=O)[C@H](Cc2ccccc2)N(C)C(=O)CN(C)C(=O)C[C@@H](C(=O)N2CCCCC2)NC(=O)[C@H]([C@@H](C)CC)N(C)C(=O)C(COCc2ccccc2)NC(=O)[C@H](CC(C)C)N(C)C(=O)[C@H](Cc2ccccc2)N(C)C(=O)CN(C)C(=O)[C@H]([C@@H](C)O)NC(=O)[C@H](CC(C)C)N(C)C1=O (stereo partly drawn) [pd178] ([Sar][NMeF]I[NMeL]T[Sar][NMeF][NMeL][ξS](Bn)[NMeI]D-Piperidide; lactam N-11) ?
2.5e-06

What do you get for CC(C)C[C@H]1C(=O)N[C@H](C(=O)N2CCCCC2)CC(=O)N(C)[C@@H](C)C(=O)N[C@@H](CCCc2ccccc2)C(=O)N(C)[C@@H](CC(C)C)C(=O)N(C)[C@@H](Cc2ccccc2)C(=O)N[C@@H](C)C(=O)N(C)[C@@H](Cc2ccccc2)C(=O)N(C)[C@@H](C(C)C)C(=O)N[C@@H]([C@@H](C)O)C(=O)N(C)CC(=O)N1C [pd191] ([NMeA][hhPhe][NMeL][NMeF]A[NMeF][NMeV]T[Sar][NMeL]D-Piperidide; lactam N-11) ?
1.5e-06

What do you get for CC(C)C[C@H]1C(=O)N[C@@H]([C@@H](C)O)C(=O)N(C)CC(=O)N(C)[C@@H](Cc2ccccc2)C(=O)N(C)[C@@H](CC(C)C)C(=O)N[C@@H](COC(C)(C)C)C(=O)N(C)[C@@H](CC(C)C)C(=O)N[C@H](C(=O)N2CCCCC2)CC(=O)N(C)CC(=O)N(C)[C@@H](Cc2ccccc2)C(=O)N[C@@H](COCc2ccccc2)C(=O)N1C [pd177] ([Sar][NMeF]S(Bn)[NMeL]T[Sar][NMeF][NMeL]S(tBu)[NMeL]D-Piperidide; lactam N-11) ?
3e-06

What do you get for CCCN1CC(=O)N(C)[C@@H](Cc2ccccc2)C(=O)N[C@@H]([C@@H](C)CC)C(=O)N(C)[C@@H](Cc2ccccc2)C(=O)N[C@@H]([C@@H](C)O)C(=O)N(C)CC(=O)N(C)[C@@H](Cc2ccccc2)C(=O)N(C)[C@@H](CC(C)C)C(=O)N[C@@H](COC(C)(C)C)C(=O)N(C)[C@@H](C(C)C)C(=O)N[C@H](C(=O)N2CCCCC2)CC1=O [pd195] ([NPrGly][NMeF]I[NMeF]T[Sar][NMeF][NMeL]S(tBu)[NMeV]D-Piperidide; lactam N-11) ?
5e-06

What do you get for CC[C@H](C)[C@H]1C(=O)N[C@@H]([C@@H](C)O)C(=O)N(C)CC(=O)N(C)[C@@H](CC(C)C)C(=O)N[C@H](C(=O)N2CCCCC2)CC(=O)N(C)[C@@H](C)C(=O)NC(COc2cccc(Cl)c2)C(=O)N(C)[C@@H](CC(C)C)C(=O)N(C)[C@@H](Cc2ccccc2)C(=O)N[C@@H](C)C(=O)N(C)[C@@H](Cc2ccccc2)C(=O)N1C (stereo partly drawn) ?
1.3e-06

What do you get for CC(C)C[C@H]1C(=O)N[C@@H]([C@@H](C)O)C(=O)N(C)CC(=O)N(C)[C@@H](C(C)C)C(=O)N[C@@H](Cc2ccccc2)C(=O)N(C)[C@@H](Cc2cccc(Cl)c2)C(=O)N(C)[C@@H](CC(C)C)C(=O)N(C)[C@H](C(=O)N2CCCCC2)CC(=O)N2CCC[C@H]2C(=O)N[C@@H](Cc2ccccc2)C(=O)N[C@@H](COC(C)(C)C)C(=O)N1C [pd162] (PFS(tBu)[NMeL]T[Sar][NMeV]F[NMePhe(3-Cl)][NMeL][NMeD]-Piperidide; lactam N-11) ?
1.2e-06

What do you get for CC(C)C[C@@H]1NC(=O)[C@H](Cc2ccccc2)N(C)C(=O)[C@H]2CCCN2C(=O)C[C@@H](C(=O)N2CCCCC2)N(C)C(=O)[C@H](Cc2ccccc2)N(C)C(=O)[C@H](Cc2ccccc2)N(C)C(=O)[C@H](COC(C)(C)C)NC(=O)[C@H](C(C)C)N(C)C(=O)CN(C)C(=O)[C@H]([C@@H](C)O)NC(=O)[C@H](CC(C)C)N(C)C1=O [pd200] ([dP][NMeF]L[NMeL]T[Sar][NMeV]S(tBu)[NMeF][NMeF][NMeD]-Piperidide; lactam N-11) ?
2.6e-06

What do you get for CC(C)C[C@H]1C(=O)N(C)[C@@H](C(C)C)C(=O)N[C@@H](Cc2ccccc2)C(=O)N[C@H](C(=O)N(C)[C@@H](Cc2ccccc2)C(=O)N[C@@H](C)C(=O)N2CCCCC2)CC(=O)N(C)CCCC(=O)N[C@@H](C(C)C)C(=O)N(C)[C@@H](CC(C)C)C(=O)N[C@@H]([C@@H](C)O)C(=O)N(C)[C@@H](Cc2ccccc2)C(=O)NCC(=O)N1C [pd198] ([NMeGABA]V[NMeL]T[NMeF]G[NMeL][NMeV]FD[NMeF]A-Piperidide; lactam N-10) ?
2.7e-06

What do you get for CCCN1CC(=O)N(C)[C@@H](CC(C)C)C(=O)N[C@@H](COC(C)(C)C)C(=O)N(C)[C@@H](Cc2ccccc2)C(=O)N(C)[C@@H](Cc2ccccc2)C(=O)N[C@H](C(=O)N2CCCCC2)CC(=O)N[C@H](C)C(=O)N(C)[C@@H](Cc2ccccc2)C(=O)N[C@@H](C(C)C)C(=O)N(C)[C@@H](CC(C)C)C(=O)N[C@@H]([C@@H](C)O)C1=O [pd194] ([dA][NMeF]V[NMeL]T[NPrGly][NMeL]S(tBu)[NMeF][NMeF]D-Piperidide; lactam N-11) ?
5.3e-06
